- testSystem: insulin receptor isoform B (IR-B) (Homo sapiens, UniProt P06213)
- Sequence (P06213 28-758 limits assumed): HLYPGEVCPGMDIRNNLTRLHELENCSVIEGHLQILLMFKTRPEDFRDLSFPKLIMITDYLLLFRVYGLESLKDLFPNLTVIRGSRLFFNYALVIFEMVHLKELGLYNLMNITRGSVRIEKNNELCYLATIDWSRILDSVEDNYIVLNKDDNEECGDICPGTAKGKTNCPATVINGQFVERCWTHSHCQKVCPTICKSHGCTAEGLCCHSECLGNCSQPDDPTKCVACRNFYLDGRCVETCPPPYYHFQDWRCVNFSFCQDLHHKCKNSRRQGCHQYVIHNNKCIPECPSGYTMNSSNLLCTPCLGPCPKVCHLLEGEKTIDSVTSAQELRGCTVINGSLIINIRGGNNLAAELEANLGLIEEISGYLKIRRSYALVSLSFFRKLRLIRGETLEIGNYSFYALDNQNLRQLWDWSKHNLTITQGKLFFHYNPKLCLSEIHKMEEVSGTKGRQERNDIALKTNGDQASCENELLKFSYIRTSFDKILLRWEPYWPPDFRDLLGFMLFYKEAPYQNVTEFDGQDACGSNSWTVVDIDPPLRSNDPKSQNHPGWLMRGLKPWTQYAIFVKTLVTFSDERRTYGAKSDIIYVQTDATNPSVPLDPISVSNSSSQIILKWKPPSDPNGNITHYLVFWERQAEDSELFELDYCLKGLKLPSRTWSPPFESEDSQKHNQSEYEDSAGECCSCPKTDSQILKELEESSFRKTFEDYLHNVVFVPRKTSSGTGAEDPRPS
- Sequence (P06213 763-1382 limits assumed): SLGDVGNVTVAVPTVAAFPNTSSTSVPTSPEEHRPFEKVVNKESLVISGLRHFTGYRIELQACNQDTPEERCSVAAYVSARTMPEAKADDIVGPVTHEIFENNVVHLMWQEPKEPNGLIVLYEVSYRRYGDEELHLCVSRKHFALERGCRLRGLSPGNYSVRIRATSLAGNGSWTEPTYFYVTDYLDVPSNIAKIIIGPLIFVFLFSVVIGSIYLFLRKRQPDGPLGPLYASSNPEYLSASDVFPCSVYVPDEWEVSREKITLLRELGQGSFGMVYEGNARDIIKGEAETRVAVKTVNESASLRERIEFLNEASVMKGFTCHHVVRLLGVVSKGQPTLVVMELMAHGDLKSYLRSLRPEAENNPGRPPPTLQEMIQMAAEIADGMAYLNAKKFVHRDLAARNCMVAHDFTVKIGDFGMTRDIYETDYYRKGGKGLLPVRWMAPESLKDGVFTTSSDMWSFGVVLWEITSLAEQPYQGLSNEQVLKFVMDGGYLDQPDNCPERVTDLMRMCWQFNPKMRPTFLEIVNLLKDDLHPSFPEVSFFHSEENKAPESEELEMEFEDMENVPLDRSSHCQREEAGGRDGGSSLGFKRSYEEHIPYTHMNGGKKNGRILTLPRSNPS
- method: Insulin receptor binding affinity assay of insulin analogs (Example 8A, SPA competition binding)
- Parameters: expressed in transfected cells; host or cells: CHO cells overexpressing the IR; isolated plasma membranes
- conditionInfo: relative to human insulin; a value of 0 means below the detection limit
measurementLabel: Insulin-receptor binding affinity
Just the number.

Incoming: Given the entry O=C(O)CCCCCCCCCCCc1cc(Oc2ccc(S(=O)(=O)Nc3ncc(C(=O)NCCOCCOCC(=O)NCCOCCOCC(=O)O)cn3)cc2)ccc1F , report its measured Insulin-receptor binding affinity.
Outgoing: 0.12

Incoming: Another compound to check: O=C(O)CCCCCCCCCCCCCc1cc(Oc2ccc(S(=O)(=O)Nc3ccc(C(=O)NCCOCCOCC(=O)NCCOCCOCC(=O)O)cn3)cc2)ccc1F
Outgoing: 0.01

Incoming: Another compound to check: O=C(O)CCCCCCCCCCCCCCCc1cc(Oc2ccc(S(=O)(=O)Nc3ccc(C(=O)NCCOCCOCC(=O)NCCOCCOCC(=O)O)cn3)cc2)ccc1F
Outgoing: 0.56

Incoming: Another compound to check: O=C(O)CCCCCCCCCCCOc1ccc(S(=O)(=O)Nc2ccc(C(=O)NCCOCCOCC(=O)NCCOCCOCC(=O)O)cn2)cc1
Outgoing: 0.23

Incoming: Another compound to check: O=C(O)CCCCCCCCCCCCCCCCCc1ccc(S(=O)(=O)Nc2ncc(C(=O)NCCOCCOCC(=O)NCCOCCOCC(=O)O)cn2)cc1
Outgoing: 0.57

Incoming: Another compound to check: O=C(O)CCCCCCCCCCCCCCOc1ccc(S(=O)(=O)Nc2ccc(C(=O)NCCOCCOCC(=O)NCCOCCOCC(=O)O)cn2)cc1
Outgoing: 0.05

Incoming: Another compound to check: O=C(O)CCCCCCCCCCCOc1ccc(CCc2ccc(S(=O)(=O)Nc3ncc(C(=O)NCCOCCOCC(=O)NCCOCCOCC(=O)O)cn3)cc2)cc1
Outgoing: 0.24

Incoming: Another compound to check: O=C(O)CCCCCCCCCCCCCc1ccc(Oc2ccc(S(=O)(=O)Nc3ncc(C(=O)NCCOCCOCC(=O)NCCOCCOCC(=O)O)cn3)cc2)cc1
Outgoing: 0.01

Incoming: Another compound to check: O=C(O)CCCCCCCCCCCCCCCCCc1ccc(S(=O)(=O)Nc2ccc(C(=O)NCCOCCOCC(=O)NCCOCCOCC(=O)O)cn2)cc1
Outgoing: 0.12

Incoming: Another compound to check: O=C(O)CCCCCCCCCCCCCCCOc1ccc(S(=O)(=O)Nc2ncc(C(=O)NCCOCCOCC(=O)NCCOCCOCC(=O)O)cn2)cc1F
Outgoing: 0

Incoming: Another compound to check: O=C(O)CCCCCCCCCc1ccc(CCOc2ccc(S(=O)(=O)Nc3ncc(C(=O)NCCOCCOCC(=O)NCCOCCOCC(=O)O)cn3)cc2)cc1
Outgoing: 0.37

Incoming: Another compound to check: O=C(O)CCCCCCCCCCCCCc1ccc(CCOc2ccc(S(=O)(=O)Nc3ncc(C(=O)NCCOCCOCC(=O)NCCOCCOCC(=O)O)cn3)cc2)cc1
Outgoing: 0.01

Incoming: Another compound to check: O=C(O)CCCCCCCCCCCCCCCOc1ccc(S(=O)(=O)Nc2ccc(C(=O)NCCOCCOCC(=O)NCCOCCOCC(=O)O)cn2)cc1F
Outgoing: 0

Incoming: Another compound to check: O=C(O)CCCCCCCCCCCCCCc1cc(Oc2ccc(S(=O)(=O)Nc3ncc(C(=O)NCCOCCOCC(=O)NCCOCCOCC(=O)O)cn3)cc2)ccc1F
Outgoing: 0.11

Incoming: Another compound to check: O=C(O)CCCCCCCCCc1ccc(OCc2ccc(S(=O)(=O)Nc3ccc(C(=O)NCCOCCOCC(=O)NCCOCCOCC(=O)O)cc3)cc2)cc1
Outgoing: 1.05

Incoming: Another compound to check: O=C(O)CCCCCCCCCCCCCOc1ccc(S(=O)(=O)Nc2ccc(C(=O)NCCOCCOCC(=O)NCCOCCOCC(=O)O)cn2)cc1
Outgoing: 0

Incoming: Another compound to check: O=C(O)CCCCCCCCCCCCCOc1ccc(S(=O)(=O)Nc2ncc(C(=O)NCCOCCOCC(=O)NCCOCCOCC(=O)O)cn2)cc1
Outgoing: 0.01

Incoming: Another compound to check: O=C(O)CCCCCCCCCCCc1cc(Oc2ccc(S(=O)(=O)Nc3ccc(C(=O)NCCOCCOCC(=O)NCCOCCOCC(=O)O)cn3)cc2)ccc1F
Outgoing: 0.01

Incoming: Another compound to check: O=C(O)CCCCCCCCCCCOc1ccc(S(=O)(=O)Nc2ncc(C(=O)NCCOCCOCC(=O)NCCOCCOCC(=O)O)cn2)cc1
Outgoing: 0.36

Incoming: Another compound to check: O=C(O)CCCCCCCCCCCc1cccc(S(=O)(=O)Nc2ccc(C(=O)NCCOCCOCC(=O)NCCOCCOCC(=O)O)cn2)c1
Outgoing: 0.01

Incoming: Another compound to check: O=C(O)CCCCCCCCCCCOc1ccc(CCc2ccc(S(=O)(=O)Nc3ccc(C(=O)NCCOCCOCC(=O)NCCOCCOCC(=O)O)cn3)cc2)cc1
Outgoing: 0.02
